test system: MALME-3M melanoma; assay: NCI tumour cell line growth inhibition, 48 h
measured-parameter: TGI (µM)
Please reply with the bare figure in µM and do not write the unit itself.

The following molecules have reported results that may help.
Cn1c2ccc(C3=NCCN3)cc2c2cc(C3=NCCN3)ccc21; 61
COc1ccc(NC(=O)n2nc(/C=C\c3ccc(O)c(OC)c3)cc2/C=C\c2ccc(O)c(OC)c2)cc1; 38.6
CNCCNc1nc2ccccc2c2c(=O)c3cc(F)ccc3sc12; 3.1

API: the following record is the query input.
The molecule listed as ClCc1ccc(C2OCCO2)cc1 shows TGI equal to 49.9

----------
test system: MALME-3M melanoma; assay: NCI tumour cell line growth inhibition, 48 h; in the data active = GI50 below about 0.43 µM; inactive = the rest
Outcomes you can answer with include only these: 1.0 (active), 0.0 (inactive)

Worked set:
Cc1cc2nc(-c3c(N)ncc(C#N)c3-c3ccc(Cl)cc3)[nH]c2cc1C; 0.0
COC(=O)c1ccc2c(c1)C(=O)c1c-2n(CCCN)c(=O)c2cc(OC)c(OC)cc12; 0.0
COc1ccc(NC(=O)n2nc(/C=C\c3ccc(O)c(OC)c3)cc2/C=C\c2ccc(O)c(OC)c2)cc1; 0.0
CCOC(=O)Nc1nc2cc(OCC)ccc2s1; 0.0
COc1cc(/C=C2\CN(C(=O)CCN3CCC(=NO)CC3)C/C(=C\c3cc(OC)c(OC)c(OC)c3)C2=O)cc(OC)c1OC; 1.0

// return assay outcome for Cn1cc(C2=C(c3cn(C)c4cc(N)ccc34)C(=O)NC2=O)c2ccccc21
0.0

// return assay outcome for COc1ccc([C@@H](O)c2cc(-c3ncnc4cc(N5CCOCC5)ccc34)c(F)cc2Cl)nn1
0.0
